Tested on: yersiniabactin production
procedure-text: Dose response of yersiniabactin production in UTI89 culture
Format: cell-based, Uropathogenic E. coli strain UTI89
condition-parameters: Escherichia coli, read-out: EIC, inhibits biosynthesis in culture
reported-endpoint: EC50

Entry "Cc1ccc(O)c(C(=O)O)c1" — recorded EC50 = ~2000 nM

* * *

System: yersiniabactin production
procedure-text: Dose response of yersiniabactin production in UTI89 culture
Type: cell-based, Uropathogenic E. coli strain UTI89
condition-parameters: Escherichia coli, read-out: EC50, % Ybt relative to untreated controls
reported-endpoint: EC50

Entry "Cc1ccc(O)c(C(=O)O)c1" — recorded EC50 = ~1.9 µM

Values from patent US11400102B2
